Assay: Antibiotics levels in blood upon oral administration at 100 mg/kg to mice (by the paper disk method)
Assay type: in vivo
Conditions: mouse, ND: Below detectable limit, read-out: Antibiotics levels in blood upon oral administration: Peak value
Kindly supply the reported Cmax values for the records listed here.
One number for each entry, in ng/mL.

Examples with their reported Cmax follow.
Molecule	Cmax [ng/mL]
CCC(=O)OC=CC1CC(C)C(=O)C=CC(C)=CC(COC2OC(C)C(O)C(OC)C2OC)C(CC)OC(=O)CC(OC(=O)CC)C(C)C1OC1OC(C)CC(N(C)C)C1O (centres unmarked)	2710
CCC(=O)OC=CC1CC(C)C(=O)C=CC(C)=CC(COC(=O)N(C)C)C(CC)OC(=O)CC(OC(=O)CC)C(C)C1OC1OC(C)C(O)C(N(C)C)C1O (centres unmarked)	3000
CCC(=O)OC=CC1CC(C)C(=O)C=CC(C)=CC(COC2OC(C)CC(OC)C2OC)C(CC)OC(=O)CC(OC(=O)CC)C(C)C1OC1OC(C)C(O)C(N(C)C)C1O (centres unmarked)	2630
CCC(=O)OC1CC(=O)OC(CC)C(COC2OC(C)CC(OC)C2OC)C=C(C)C=CC(=O)C(C)CC(CC=O)C(OC2OC(C)C(O)C(N(C)C)C2O)C1C (centres unmarked) [Example 2a, 3O--Propionyl-4"-deoxydesmycosin, reference compound]	420

Query :: Please give the measured Cmax for this molecule: CCC(=O)OC1CC(=O)OC(CC)C(COC2OC(C)C(O)C(OC)C2OC)C=C(C)C=CC(=O)C(C)CC(CC=O)C(OC2OC(C)CC(N(C)C)C2O)C1C (centres unmarked) [Example 3a, 3O--Propionyl-4'deoxydesmycosin, reference compound]
Result :: 430
